- target.under.test: kynurenine-3-hydroxylase (Rattus norvegicus, UniProt O88867)
- Construct: Brain was homogenized in ice-cold 0.32 M sucrose and centrifugated at 12000×g; from tissue; host or cells: rat brain homogenate, washed pellet suspended
- Sequence (O88867 whole entry): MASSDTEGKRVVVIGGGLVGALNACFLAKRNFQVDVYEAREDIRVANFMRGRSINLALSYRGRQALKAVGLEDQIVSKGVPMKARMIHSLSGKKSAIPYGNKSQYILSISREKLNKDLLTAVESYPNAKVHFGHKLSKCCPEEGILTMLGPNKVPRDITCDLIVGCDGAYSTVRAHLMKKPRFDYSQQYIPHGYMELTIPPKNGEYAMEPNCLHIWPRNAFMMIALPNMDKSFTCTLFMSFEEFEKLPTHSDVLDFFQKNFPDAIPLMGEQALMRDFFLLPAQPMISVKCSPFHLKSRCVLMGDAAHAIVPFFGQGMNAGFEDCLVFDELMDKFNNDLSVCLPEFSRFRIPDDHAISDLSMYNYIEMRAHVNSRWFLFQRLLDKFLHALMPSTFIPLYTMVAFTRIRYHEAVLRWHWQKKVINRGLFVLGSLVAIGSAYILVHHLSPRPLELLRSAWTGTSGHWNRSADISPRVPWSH
- experimental.details: Kynurenine-3-hydroxylase assay in the rat brain
- Type: biochemical
- cond: 100 μM; rat brain homogenate
// returns condition not met unless % INHIBITION AT 100 μM Kyn-3-OH-Ase is strictly below 20%, in which case condition met

| compound | class.name |
| --- | --- |
| COc1ccc(F)cc1C(=O)C[C@@H](N)C(=O)O (racemic) | condition met |
| N[C@H](CC(=O)c1ccccc1F)C(=O)O (racemic) | condition not met |
| COc1cccc(C(=O)C[C@@H](N)C(=O)O)c1 (racemic) | condition not met |
| N[C@H](CC(=O)c1ccccc1Cl)C(=O)O (racemic) | condition not met |
| N[C@H](CC(=O)c1cccc(C(F)(F)F)c1)C(=O)O (racemic) | condition met |

----------
inhibition at 100 µM for assorted compounds
- target.under.test: kynurenine-3-hydroxylase (Rattus norvegicus, UniProt O88867)
- Construct: Brain was homogenized in ice-cold 0.32 M sucrose and centrifugated at 12000×g; from tissue; host or cells: rat brain homogenate, washed pellet suspended
- experimental.details: Kynurenine-3-hydroxylase assay in the rat brain
- Assay type: biochemical
- cond: 100 μM; rat brain homogenate; read-out: % INHIBITION AT 100 μM Kyn-3-OH-Ase

| compound | inhibition at 100 µM (%) |
| --- | --- |
| COc1ccccc1C(=O)CC(N)C(=O)O (racemic) | 4 |
| NC(CC(=O)c1cccc(Cl)c1)C(=O)O (racemic) | 93 |
| COc1ccc(C(=O)CC(N)C(=O)O)cc1 (racemic) | 79 |

----------
So I've got IC50 readings for UniProt O88867, take a look.

| compound | target.under.test | IC50 |
| --- | --- | --- |
| NC(CC(=O)c1cccc(Cl)c1)C(=O)O (racemic) | UniProt O88867 | 0.4 µM |
| NC(CC(=O)c1ccc(Cl)cc1)C(=O)O (racemic) | UniProt O88867 | 7 µM |

----------
- target.under.test: rat brain kynureninase (Rattus norvegicus)
- Construct: Partial purification of rat brain kynureninase was performed according to Lee et al; from tissue; host or cells: rat brain, partially purified enzyme
- Sequence (P70712 whole entry): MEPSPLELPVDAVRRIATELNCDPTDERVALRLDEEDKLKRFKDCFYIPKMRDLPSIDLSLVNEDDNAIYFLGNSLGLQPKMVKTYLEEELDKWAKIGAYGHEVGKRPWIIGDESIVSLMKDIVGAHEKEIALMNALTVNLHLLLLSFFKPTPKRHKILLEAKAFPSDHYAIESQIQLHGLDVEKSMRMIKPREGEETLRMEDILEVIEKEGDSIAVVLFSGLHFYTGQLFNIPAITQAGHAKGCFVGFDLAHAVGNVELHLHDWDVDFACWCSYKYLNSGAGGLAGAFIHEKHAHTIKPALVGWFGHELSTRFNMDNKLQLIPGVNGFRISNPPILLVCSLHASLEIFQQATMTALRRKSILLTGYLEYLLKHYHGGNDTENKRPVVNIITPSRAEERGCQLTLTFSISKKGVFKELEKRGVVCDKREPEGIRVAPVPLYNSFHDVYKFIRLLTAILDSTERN
- experimental.details: Kynureninase assay in the rat brain
- Type: biochemical
- cond: rat brain homogenate, read-out: % INHIBITION AT 100 μM Kyn-Ase
inhibition at 100 µM for assorted molecules

| molecule | inhibition at 100 µM [%] |
| --- | --- |
| N[C@@H](CC(=O)c1ccccc1)C(=O)O [FCE 28468, (S)-2-amino-4-phenyl-4-oxo-butyric acid] | 61 |
| NC(CC(=O)c1cccc(Cl)c1)C(=O)O (racemic) | 60 |
| NC(CC(=O)c1ccccc1)C(=O)O (racemic) | 35.6 |
| N[C@H](CC(=O)c1ccccc1)C(=O)O [FCE 28469, (R)-2-amino-4-phenyl-4-oxo-butyric acid] | 19 |

----------
Structures can show the parent of a compound that is named as a salt.

| molecule | melting point |
| --- | --- |
| COc1ccccc1C(=O)CC(N)C(=O)O (racemic) [FCE 27384] | 115 °C (dec.) |
| COc1ccc(Cl)cc1C(=O)CC(N)C(=O)O (racemic) (as salt: hydrochloride) [FCE 28836] | 212 to 213 °C |
| COc1ccc(C(=O)CC(N)C(=O)O)cc1 (racemic) [FCE 28628] | 160 °C (dec.) |
| NC(CC(=O)c1ccc(Cl)cc1)C(=O)O (racemic) [FCE 28751] | 204 to 206 °C |
| NC(CC(=O)c1cccc(F)c1)C(=O)O (racemic) [FCE 28764] | 194 to 195 °C (dec.) |
| COc1ccccc1C(=O)C[C@H](N)C(=O)O [FCE 28626] | 130 °C (dec.) |
| Cc1ccccc1C(=O)CC(N)C(=O)O (racemic) [FCE 28630] | 192 to 193 °C (dec.) |
| NC(CC(=O)c1cccc(Cl)c1)C(=O)O (racemic) [FCE 28752] | 198 to 200 °C (dec.) |
